# Test system: JVM-2 (B-Cell Non-Hodgkin's Lymphoma);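 note: after 72 h of two-drug dosing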
# Run description: Bliss excess, mean over the matrix (fraction); higher = more synergy
Here, each record is paired with measured Bliss excess data.
No unit in the answer, please; the number alone is enough.

Compound	Recorded result
CC(=O)c1c(C)c2cnc(Nc3ccc(N4CCNCC4)cn3)nc2n(C2CCCC2)c1=O [Palbociclib] + CN(CC[C@H](CSC1=CC=CC=C1)NC2=C(C=C(C=C2)S(=O)(=O)NC(=O)C3=CC=C(C=C3)N4CCC(CC4)[C@H](C5=CC=CC=C5C6=CC=C(C=C6)Cl)O)S(=O)(=O)C(F)(F)F)CCO [AZD4320] (first compound max 10 µM, 7x7, partner max 1 µM)	-0.0143

Switching to the query record.
Read off the recorded Bliss excess for COc1cccc(OCCCN)c1-c1cc(Nc2cnc(C#N)cn2)n[nH]1 [Prexasertib] + CN(C)CCCOc1ccc(-c2ccc3ncc4c(c3c2)n(C2CCOCC2)c(=O)n4C)cn1 [AZD0156] (first compound max 1 µM, 7x7, partner max 1 µM)
-0.0104
